The reported measurements were obtained from patent US9751837B2.

In this section, each of the molecules is paired with its reported % Viability at 20 μg/mL.
- Tested on: Jurkat cells
- protocol_notes: Cell cytotoxicity assay (r)
- Assay type: cell-based, human
- experimental_setup: 24 hours, 20 μg/mL

Exercise: Write down % Viability at 20 μg/mL measured for item COc1cc(Nc2cc(Oc3ccc(NC(=O)Nc4cc(C(C)(C)C)cc(NS(C)(=O)=O)c4OC)c4ccccc34)ccn2)ccc1-c1nn[nH]n1 [Example 24]
Key: 9.7%

Exercise: Provide measured % Viability at 20 μg/mL value, entry: COc1cc(Nc2cc(Oc3ccc(NC(=O)Nc4cc(C(C)(C)C)cc(NS(C)(=O)=O)c4OC)c4ccccc34)ccn2)ccc1C(=O)NCC1CCN(C)CC1 [17(ak)]
Key: 0.4%

Exercise: Look up % Viability at 20 μg/mL of COc1cc(Nc2cc(Oc3ccc(NC(=O)Nc4cc(C(C)(C)C)cc(NS(C)(=O)=O)c4OC)c4ccccc34)ccn2)ccc1S(=O)(=O)CCCN1CCN(C)CC1 [17(ch)] and report it.
Key: 0.7%

Exercise: Supply reported % Viability at 20 μg/mL belonging to this molecule: COc1cc(Nc2cc(Oc3ccc(NC(=O)Nc4cc(C(C)(C)C)cc(NS(C)(=O)=O)c4OC)c4ccccc34)ccn2)ccc1C(=O)NCC(CO)(CO)CO [Example 38]
Key: 6.0%

Exercise: Give recorded % Viability at 20 μg/mL. COc1cc(Nc2cc(Oc3ccc(NC(=O)Nc4cc(C(C)(C)C)cc(NS(C)(=O)=O)c4OC)c4ccccc34)ccn2)ccc1S(=O)(=O)N(C)CCCN1CCN(C)CC1 [Example 25]
Key: 0.7%
